System: HepG2
Procedure details: GSK_TCMDC: Percent inhibition of human HepG2 cell line. Test compounds present at 10uM.
Assay type: functional
Hi, to clarify the labels: Met covers Inhibition from 50% upward, Not met covers anything below 50%.

- Compound smiles: "CC(C)CCNc1nc(NCCc2ccccc2)c2cc(O)ccc2n1"
  Assigned label: "Not met"
- Compound smiles: "CCCCCCOc1ccc(/C(N)=N\\Cc2ccccc2)c2c1CCCC2.Cl"
  Assigned label: "Met"
- Compound smiles: "O=C(/C=C/c1ccc(Cl)c(Cl)c1)NCCCCCN1CCCN(C(=O)Nc2ccc(OC(F)F)cc2)CC1"
  Assigned label: "Not met"
- Compound smiles: "Cc1cnc(C(=O)Nc2ccc(-c3cccc(-c4nc5ccccc5[nH]4)c3)cc2)cn1"
  Assigned label: "Met"
- Compound smiles: "Cc1cccc2nc(-c3cccc(-c4ccc(NC(=O)Nc5ccc(Cl)c(Cl)c5)cc4)c3)[nH]c12"
  Assigned label: "Met"

###

Test system: HepG2
Procedure details: GSK_TCMDC: Percent inhibition of human HepG2 cell line. Test compounds present at 10uM.
Assay type: functional

- Compound: "N#Cc1ccc(NC(=O)NC2CCN(CCCCCNC(=O)/C=C/c3ccc(Cl)c(Cl)c3)CC2)cc1"
  Assay target: "HepG2"
  Inhibition / %: 15
- Compound: "CCCCCCCCNCC(O)c1cc(-c2ccc(Cl)cc2)nc2cc(C)ccc12 (centres undefined)"
  Assay target: "HepG2"
  Inhibition / %: 0
- Compound: "Cl.Cl.N=C(N)c1ccc(-c2cc(-c3cccc(C(=N)N)c3)on2)cc1"
  Assay target: "HepG2"
  Inhibition / %: 7
- Compound: "O=C(NC(c1ccccc1)c1ccccc1)C(c1cc2ccccc2o1)N1CCN(C(c2ccccc2)c2ccccc2)CC1 (centres undefined)"
  Assay target: "HepG2"
  Inhibition / %: 0
- Compound: "CCN1CCCC1CNC(=O)c1cc2c(-c3ccc(Cl)cc3)nn(C)c2s1 (centres undefined)"
  Assay target: "HepG2"
  Inhibition / %: 27
- Compound: "COc1ccccc1CCN(C)CCN1CCC(NC(=O)c2ccc(-c3ccc(C(F)(F)F)cc3)cc2)CC1"
  Assay target: "HepG2"
  Inhibition / %: 46
- Compound: "Cl.c1ccc2nc(NCCCCCCCCNc3ccc4ccccc4n3)ccc2c1"
  Assay target: "HepG2"
  Inhibition / %: 52
- Compound: "COc1ccc(CNC2CCN(C)CC2)cc1-c1ccc(S(=O)(=O)NCc2ccccc2)c(C)c1.O=C(O)C(F)(F)F"
  Assay target: "HepG2"
  Inhibition / %: 81
- Compound: "COc1ccc(CNC2CCN(C)CC2)cc1-c1ccc(S(=O)(=O)NCCc2ccccn2)c(F)c1.O=C(O)C(F)(F)F"
  Assay target: "HepG2"
  Inhibition / %: 3

###

Form field: Inhibition (one value per entry).
System: Plasmodium falciparum
Procedure details: GSK_TCMDC: Inhibition of Plasmodium falciparum 3D7 in whole red blood cells, using parasite LDH activity as an index of growth. Test compounds present at 2uM
Type: functional
Metric name: Inhibition (%)

- Compound: "CC(=O)c1cccc2[nH]c(C(=O)NC3CCC(CCN4CCc5ccc(C#N)cc5C4)CC3)cc12.Cl (stereo not drawn)"
  Assay target: "Plasmodium falciparum"
  Metric name: "Inhibition"
  Test value: 96
- Compound: "Cc1noc(C)c1-c1cccc(CNCc2ccc(-c3cccc(-c4nc5cc(F)ccc5[nH]4)c3)cc2)c1.O=C(O)C(F)(F)F"
  Assay target: "Plasmodium falciparum"
  Metric name: "Inhibition"
  Test value: 100
- Compound: "Fc1ccc(Nc2ccnc3cc(-c4cccc(CNCCN5CCOCC5)c4)ccc23)c(Cl)c1"
  Assay target: "Plasmodium falciparum"
  Metric name: "Inhibition"
  Test value: 100
- Compound: "COc1ccccc1Nc1nc(C)cc(NCc2ccc(-c3c(C)noc3C)cc2)n1"
  Assay target: "Plasmodium falciparum"
  Metric name: "Inhibition"
  Test value: 98
- Compound: "COc1cccc(C(=O)C2CC2CN(C)CCC(O)c2ccc(Cl)c(Cl)c2)c1 (stereo not drawn)"
  Assay target: "Plasmodium falciparum"
  Metric name: "Inhibition"
  Test value: 99
- Compound: "CC(C)N1CCC(N(Cc2ccc(-c3ccc(C(F)(F)F)cc3)cc2)C(=O)CCCn2c(CCc3cccc(F)c3F)nc(=O)c3ccccc32)CC1.O=C(O)C(O)C(O)C(=O)O"
  Assay target: "Plasmodium falciparum"
  Metric name: "Inhibition"
  Test value: 89
- Compound: "COc1ccc(CNCc2ccc(-c3cccc(-c4nc5cc(F)ccc5[nH]4)c3)cc2)cc1.O=C(O)C(F)(F)F"
  Assay target: "Plasmodium falciparum"
  Metric name: "Inhibition"
  Test value: 100
- Compound: "CCCNC(=O)C1CCN(C(c2ccc(Cl)cc2)c2ccc(Cl)cc2)CC1"
  Assay target: "Plasmodium falciparum"
  Metric name: "Inhibition"
  Test value: 98
- Compound: "CS(=O)(=O)Cc1ccc(Nc2nccc(-c3c(-c4cccc(NC(=O)c5c(F)cccc5F)c4)nn4ccccc34)n2)cc1"
  Assay target: "Plasmodium falciparum"
  Metric name: "Inhibition"
  Test value: 99
- Compound: "CCCCCCNC(=O)C1Cc2c([nH]c3ccc(C)cc23)C2(CCN(CCc3ccccc3)CC2)N1 (stereo not drawn)"
  Assay target: "Plasmodium falciparum"
  Metric name: "Inhibition"
  Test value: 85
- Compound: "O=C(O)C(F)(F)F.c1cncc(CCNCc2cccc(-c3csc(-c4nc5ccccc5[nH]4)c3)c2)c1"
  Assay target: "Plasmodium falciparum"
  Metric name: "Inhibition"
  Test value: 100
- Compound: "COc1ccc(CNC2CCN(C)CC2)cc1-c1ccc(S(=O)(=O)NC2CCC2)c(C)c1.O=C(O)C(F)(F)F"
  Assay target: "Plasmodium falciparum"
  Metric name: "Inhibition"
  Test value: 100
- Compound: "Cc1ccc2c(=NN=Cc3ccc(Cl)cc3)cc(C)[nH]c2c1"
  Assay target: "Plasmodium falciparum"
  Metric name: "Inhibition"
  Test value: 100
- Compound: "CCCCCCCCc1c(C)[nH]c(C)c(Cl)c1=O"
  Assay target: "Plasmodium falciparum"
  Metric name: "Inhibition"
  Test value: 96
- Compound: "CS(=O)(=O)N1CC2(CCN(CCC(NC(=S)Nc3ccccc3)c3ccc(Cl)c(Cl)c3)CC2)c2ccccc21 (stereo not drawn)"
  Assay target: "Plasmodium falciparum"
  Metric name: "Inhibition"
  Test value: 98
- Compound: "COc1ccc(NC(=O)NC2CCN(CCCOc3ccnc4cc(Cl)ccc34)C2)cc1OC (stereo not drawn)"
  Assay target: "Plasmodium falciparum"
  Metric name: "Inhibition"
  Test value: 90
- Compound: "CCOC(=O)c1nc(-c2cccc(F)c2)[nH]c1N.Cl"
  Assay target: "Plasmodium falciparum"
  Metric name: "Inhibition"
  Test value: 98
- Compound: "COc1ccc(C2CC(=O)C3=C(C2)NC(C)=C(C(=O)OC2CCCC2)C3c2ccc(O)cc2)cc1OC (stereo not drawn)"
  Assay target: "Plasmodium falciparum"
  Metric name: "Inhibition"
  Test value: 97

###

Tested on: Plasmodium falciparum
Procedure details: GSK_TCMDC: Inhibition of Plasmodium falciparum 3D7 in whole red blood cells, using parasite LDH activity as an index of growth. Test compounds present at 2uM
Assay type: functional
So basically: Inhibition at 90% or higher? That is Satisfied. Lower than 90%? That is Not satisfied.

- Compound: "COc1cc(CNCCC(C)C)ccc1OCc1cccc(COc2ccc(CNCCC(C)C)cc2OC)c1.Cl"
  Assigned label: "Satisfied"
- Compound: "CCNc1cc(C(=O)N[C@@H](Cc2ccccc2)[C@H](O)CNC2(CC)CC2)cc(N2CCCCS2(=O)=O)c1.Cl"
  Assigned label: "Satisfied"
- Compound: "COc1ccc2nc3cc(Cl)ccc3c(NCCc3ccccc3)c2c1.Cl"
  Assigned label: "Satisfied"
- Compound: "CCCCC1(c2ccc(F)cc2)NC(=O)N(CC(=O)c2cc(C)n(Cc3ccco3)c2C)C1=O (stereo not given)"
  Assigned label: "Not satisfied"
- Compound: "Cn1nccc1C(=O)NCCNCc1ccc(-c2cccc(-c3nc4cc(F)ccc4[nH]3)c2)cc1.O=C(O)C(F)(F)F"
  Assigned label: "Satisfied"
- Compound: "CC(Nc1ccc2c(c1)CCC2)C(=O)Nc1cc(C(F)(F)F)ccc1N1CCOCC1 (stereo not given)"
  Assigned label: "Satisfied"
- Compound: "Cc1cccc(CN2CCN(c3ncc(C(=O)NC4CC4)cc3Cl)CC2)c1.O=C(O)C(F)(F)F"
  Assigned label: "Not satisfied"
- Compound: "CCCN(CCC)CCCNc1ccc(C(=O)Nc2ccc(C)c(F)c2)cc1[N+](=O)[O-]"
  Assigned label: "Satisfied"
- Compound: "CC(C)(C)c1nn(-c2ccc(Cl)cc2)c2[nH]c(=O)c(CNCc3cccs3)cc12"
  Assigned label: "Satisfied"
- Compound: "Cc1ccc2c(=NN=Cc3cccc(Cl)c3)cc(C)[nH]c2c1"
  Assigned label: "Satisfied"
- Compound: "COc1ccc(C[C@H](N)C(=O)N[C@H]2[C@@H](O)[C@H](n3cnc4c(N(C)C)ncnc43)O[C@@H]2CO)cc1"
  Assigned label: "Satisfied"
- Compound: "N#Cc1cccc(C(=O)Nc2cccc(-c3ccc(CN4CCC(O)CC4)cc3)c2)c1.O=C(O)C(F)(F)F"
  Assigned label: "Not satisfied"
- Compound: "COc1ccc(C(C(=O)NC2CCN(C[C@H](O)c3ccnc4ccc(OC)cc34)CC2)N2CCN(c3ccc(Cl)c(Cl)c3)CC2)cc1 (stereo not given in full)"
  Assigned label: "Satisfied"
- Compound: "CC(C)CCN1CCC(Oc2ccc(NC(=O)c3ccc(F)cc3)cc2Cl)CC1.O=C(O)C(F)(F)F"
  Assigned label: "Satisfied"
- Compound: "CCOC(=O)Nc1cc(-c2csc(N=C(N)N)n2)cc([N+](=O)[O-])c1"
  Assigned label: "Satisfied"
- Compound: "O=C(Nc1cccc(-c2cccc(-c3nc4ccccc4[nH]3)c2)c1)Nc1ccc2c(c1)OCO2"
  Assigned label: "Satisfied"
- Compound: "O=C(O)C(F)(F)F.Oc1ccc(CCNc2nc(NCCCOc3ccccc3-c3ccc(F)cc3)nc(N3CCNCC3)n2)cc1"
  Assigned label: "Not satisfied"
- Compound: "NC(=O)Nc1ccc2c(Nc3ccc(OCc4ccccc4)cc3)ncnc2c1"
  Assigned label: "Not satisfied"
- Compound: "O=C(Nc1ccc(-c2ccccc2)cc1)Nc1cccc(OCCN2CCCC2)c1.O=C(O)C(F)(F)F"
  Assigned label: "Satisfied"
- Compound: "O=C(Nc1ccccc1)Nc1ccc(-c2cccc(-c3nc4cc(C(F)(F)F)ccc4[nH]3)c2)cc1"
  Assigned label: "Satisfied"
- Compound: "O=C(NCCc1ccc(Cl)c(Cl)c1)C1CCCN(C(=O)c2ccc(O)c(-c3ccc(Cl)c(Cl)c3)c2)C1 (stereo not given)"
  Assigned label: "Satisfied"
- Compound: "O=C(/C=C/c1ccc(Cl)c(Cl)c1)NCCCCCN1CCC(NC(=O)c2cccc(Cl)c2)CC1"
  Assigned label: "Satisfied"
- Compound: "N#Cc1ccc2[nH]c(-c3cc(-c4cccc(F)c4)cnc3N)nc2c1.O=C(O)C(F)(F)F"
  Assigned label: "Satisfied"
- Compound: "O=C(O)C(F)(F)F.OC1CCCN(Cc2ccc(-c3cccc(-c4nc5cc(F)ccc5[nH]4)c3)cc2)C1 (stereo not given)"
  Assigned label: "Satisfied"
- Compound: "COc1cc(C(=O)NC2CCc3ccccc32)cc(Cl)c1OC (stereo not given)"
  Assigned label: "Not satisfied"
- Compound: "Cl.Nc1c2c(nc3ccc(NC(=O)c4ccc([N+](=O)[O-])cc4)cc13)CCCC2"
  Assigned label: "Satisfied"
- Compound: "CC(C)(NCc1ccc(OC(F)(F)F)cc1)c1nc(-c2ccc(Cl)c(O)c2)c(-c2ccncc2)[nH]1.Cl"
  Assigned label: "Satisfied"
